- system-under-test: T1, human NMI (N-myc Interacting protein), recombinant protein (human, UniProt Q13287 1-307, limits assumed)
- T1 construct: Gene ID: 9111; also called hNMI; antigen
- T1 sequence (looked up): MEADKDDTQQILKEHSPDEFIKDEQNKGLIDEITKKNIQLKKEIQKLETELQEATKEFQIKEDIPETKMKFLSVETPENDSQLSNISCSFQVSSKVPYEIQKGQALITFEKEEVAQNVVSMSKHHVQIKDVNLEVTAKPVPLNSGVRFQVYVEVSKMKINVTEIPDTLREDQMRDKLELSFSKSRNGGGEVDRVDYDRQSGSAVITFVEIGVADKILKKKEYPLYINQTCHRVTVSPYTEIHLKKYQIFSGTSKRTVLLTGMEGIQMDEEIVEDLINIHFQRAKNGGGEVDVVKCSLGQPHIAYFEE
- protocol-details: ELISA EC50 against parent 240B10-1
Fold decrease in affinity for assorted binders

binder	Fold decrease in affinity
240B10-1 mutant G52E (VH) (antibody, V domains shown) VH: QSLEESGGRLVTPGGSLTLTCTVSGIDLSSYTMGWVRQAPGKGLEYIGIISEGGRTYYASWAKGRFTISKTSSTTVDLKVTSLTTEDTATYFCARIYTLWGQGTLVTVSS VL: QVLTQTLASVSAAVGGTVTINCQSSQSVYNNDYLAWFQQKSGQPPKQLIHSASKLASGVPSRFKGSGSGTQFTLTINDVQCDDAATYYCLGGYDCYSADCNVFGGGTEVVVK	> 500 fold
240B10-1 mutant S29D (VH) (antibody, V domains shown) VH: QSLEESGGRLVTPGGSLTLTCTVSGIDLDSYTMGWVRQAPGKGLEYIGIISGGGRTYYASWAKGRFTISKTSSTTVDLKVTSLTTEDTATYFCARIYTLWGQGTLVTVSS VL: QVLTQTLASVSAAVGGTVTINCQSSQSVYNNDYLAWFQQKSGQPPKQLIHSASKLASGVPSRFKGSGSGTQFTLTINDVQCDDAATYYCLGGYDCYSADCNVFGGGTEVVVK	> 500 fold
240B10-1 mutant D27K (VH) (antibody, V domains shown) VH: QSLEESGGRLVTPGGSLTLTCTVSGIKLSSYTMGWVRQAPGKGLEYIGIISGGGRTYYASWAKGRFTISKTSSTTVDLKVTSLTTEDTATYFCARIYTLWGQGTLVTVSS VL: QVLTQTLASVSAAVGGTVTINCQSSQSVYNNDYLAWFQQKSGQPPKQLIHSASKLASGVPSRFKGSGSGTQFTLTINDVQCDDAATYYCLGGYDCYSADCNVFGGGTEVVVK	> 500 fold
